System: LXRa homodimer (NR concentration 270 nM)
Assay: PBM binding z-score (relative to random genomic background probes); higher = stronger binding; sequences stand for … in GC…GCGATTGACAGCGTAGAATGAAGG
MEASURE: PBM binding z-score

{"INPUT SEQUENCE": "CATACAGGGTCAGCTAGGCCAGAGTGGGGACGGC", "RESULT": 0.0582}

Input: Find the measured PBM binding z-score of CCTACTGGGCCATGAGGTCATTGATATCAACGTT with LXRa homodimer (NR concentration 270 nM) as test system.
Output: 1.87

Input: Find the measured PBM binding z-score of TTACCAAGGTGAAAGGTCCTTGATGCACGCCTTG with LXRa homodimer (NR concentration 270 nM) as test system.
Output: -0.388

Input: Find the measured PBM binding z-score of CCTTACGGGTGACGAGGTTATAGCACGACGAGCG with LXRa homodimer (NR concentration 270 nM) as test system.
Output: -0.00764

Input: Find the measured PBM binding z-score of CCTTACGGGTCACTGACAGGATATAGCATTTGGA with LXRa homodimer (NR concentration 270 nM) as test system.
Output: 0.191

Input: Find the measured PBM binding z-score of TGAATGAGGTTAAAAGATCAGGGAACGTTGCAAA with LXRa homodimer (NR concentration 270 nM) as test system.
Output: -0.107

Input: Find the measured PBM binding z-score of GCTAGCAGGCCATTTGGGTCACACAATGACGGGC with LXRa homodimer (NR concentration 270 nM) as test system.
Output: -0.68

Input: Find the measured PBM binding z-score of ATATGTAGGTTACATCCGGGGCATTCAGGCTATG with LXRa homodimer (NR concentration 270 nM) as test system.
Output: 0.412

Input: Find the measured PBM binding z-score of CTCCCAAGGTGAACAAGGTCGTTGATTACTATTC with LXRa homodimer (NR concentration 270 nM) as test system.
Output: 0.177

Input: Find the measured PBM binding z-score of CCTACTGGGCCAAAAAGGTCAGTGATGCCGATAA with LXRa homodimer (NR concentration 270 nM) as test system.
Output: 0.693

Input: Find the measured PBM binding z-score of CAAACTAGATCAAAGGTCAAAGTCGAGCCAACCA with LXRa homodimer (NR concentration 270 nM) as test system.
Output: 5.07

Input: Find the measured PBM binding z-score of TGAATGAGGCTAAAGATCAGGGAACGTGGCGTCG with LXRa homodimer (NR concentration 270 nM) as test system.
Output: -0.699

###

Listing: PBM binding z-score of selected sequences
System: LXRa:RXRa (NR concentration 270 nM, RXRa partner concentration 90 nM)
Assay: PBM binding z-score (relative to random genomic background probes); higher = stronger binding; sequences stand for … in GC…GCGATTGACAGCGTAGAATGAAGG
Form: value (number only, do not type unit).

Here is how some sequences turned out for PBM binding z-score.
{"INPUT SEQUENCE": "ATAAGTAGGTTAGCTGGGGTCATTCAGACTAGGC", "MEASURED NUMBER": 5.52}
{"INPUT SEQUENCE": "CTCAAAAGGTCGGTTGAGGTGAGTATACGGATAA", "MEASURED NUMBER": 1.8}
{"INPUT SEQUENCE": "CGAACGAGGGCATGAGTTGATTGCAAATGCCGAT", "MEASURED NUMBER": 0.271}

Next up:
Input: Report PBM binding z-score for ACTAGCAGGCCAAGTTTGTGTCACTCAAACAAAG
Output: -0.667
